test: yeast display, Sf9 membrane polyspecificity reagent, FACS + sequencing; frameworks hold sequencing errors
measured_quantity: polyreactivity (PSR sort gate)

Solved cases (6 shown):
{"columns": ["sequence_string", "polyreactivity (PSR sort gate)"],
 "data": [
  ["QVQLVESGGGIVQAGGSLRLSCAASGFTIWKYAMGLYRQAPGKERELVAAISVSGGRTNYADSVKGRFTISGDNAKNTVYLQMNSLKPEDTAVYYCIATPWRPYVGGEYWGQGTHVTVSS", "high polyreactivity"],
  ["QVHLVESGGGLVQAGGSLRLSCAASGSIFVHYAMGWYRQAPGKERELVATISSSGGSTYYADSVKGRFTISRDNAKNTVYLQMKSLKPEDTAVYYCAADWTLDPSYGYYADDYWGQGTQVTVSS", "low polyreactivity"],
  ["QVQLVESGGGLVQAGGSLRLSCAASGSILYTYAMGWYRQSPGKERELVAAISRGGGSTYYADSVKGRFTISRDNAKNSVYLQMNSLKPEDSAVYYCAARKLTRGSGRDDEYWGQGTQVTVSS", "high polyreactivity"],
  ["QVQLVESGGGLVQAGGSLRLSCAASGSTFDINAMGWYRQAPGKERELFASITFSGGSTYYADSVKGRITISRDYEKNNVYLQMNSLKPEDTAVYYCAADSSGEYPGGYWGQGTQVTVSS", "low polyreactivity"],
  ["KVQLVESGGGLVQAGGSLRFSCAASGSTFYIYAMGWYRPAPGKERELVATISSTGSTHYADSVKGRFTLSRDNAKNTVYLQMISLKPEDTAVYYCNPVYFGRYSRRDHWGQGTQVTVSS", "high polyreactivity"],
  ["QLQLVESGGGLVQAGGSLRLSCAASGSTISGYAMGWYRQAPGKARELVARINSGGGRTYYADSVKGRFTISRDNAKNTVYLQMNSLKREDTEVYYFAAYSKPFPYVSTIRYYYWGQGTQVTVSS", "high polyreactivity"]
]}

Ask: // Input: QVQLQESGGGLVQAGGSLRLSCAASGSIFVSVTMGWYRQAPGKERELVASIGRGSTTNHADSVKGRFTISRDNAKNIVYLLMNSLKPEDTAVYYCASLESYGKYHGYWGQGTQVTVSS . Output its polyreactivity (PSR sort gate) only.
Reply: low polyreactivity

Ask: Please list polyreactivity (PSR sort gate) recorded for the sequence QVQLVESGGGLVQAGGSLRLSCAASGLTFGTNAMGWYRQAPGKERELVAAISTSSGSTYYADSVKGRFTISRDNAKNTVYLQMNSLKPEDTAGYYCAAVTVTKLSYYRYYYWGQGTQVTVSS
Reply: low polyreactivity

Ask: Report measured polyreactivity (PSR sort gate); entry is QVQLVESGGGLVQEGGSLRLRCAASGGIFASNAMRWYRQAPGKERELLATITRGGSTNYADSVKGRFTISRDNAKNTVYLQMNSLKPEDTAVYYCAARFYSRAFWPAYYYWGQGTQVTVSS
Reply: high polyreactivity
